System: anti-equol monoclonal antibody composition
Experiment: Evaluating cross-reactivity of anti-equol monoclonal antibody composition
Type: binding, mouse
Conditions: compound prepared at 10 μM, reacted with the antibody; read from S-equol calibration curve
# S-equol concentration calculated from the calibration curve per entry
observation_type: S-equol concentration calculated from the calibration curve

[
  {
    "compound": "O=C(O)c1cc(O)c(O)c(O)c1",
    "observed_value": 0.08
  },
  {
    "compound": "O=c1c(-c2ccc(O)cc2)coc2cc(O)cc(O)c12",
    "observed_value": 0.00
  },
  {
    "compound": "O=c1oc2c(O)c(O)cc3c(=O)oc4c(O)c(O)cc1c4c23 [Ellagic acid dihydrate, ellagic acid dihydrate]",
    "observed_value": 0.00
  },
  {
    "compound": "COc1cc2c(=O)c(-c3ccc(O)cc3)coc2cc1O",
    "observed_value": 0.00
  },
  {
    "compound": "Oc1ccc([C@H]2COc3cc(O)ccc3C2)cc1",
    "observed_value": 10.84
  },
  {
    "compound": "Oc1ccc([C@@H]2COc3cc(O)ccc3C2)cc1",
    "observed_value": 11.88
  },
  {
    "compound": "O=c1c(-c2ccc(O)cc2)coc2cc(O)ccc12",
    "observed_value": 0.00
  },
  {
    "compound": "O=c1cc(-c2ccc(O)cc2)oc2cc(O)cc(O)c12",
    "observed_value": 0.00
  },
  {
    "compound": "C[C@@H](C(=O)c1ccc(O)cc1O)c1ccc(O)cc1",
    "observed_value": 0.00
  }
]
